Target Of Assay: Fc-fusion protein of human PSMA (hPSMA-Fc) (Homo sapiens)
Construct: purchased Acro Biosystems PSA-H5264
Sequence (Q04609 44-750 limits assumed): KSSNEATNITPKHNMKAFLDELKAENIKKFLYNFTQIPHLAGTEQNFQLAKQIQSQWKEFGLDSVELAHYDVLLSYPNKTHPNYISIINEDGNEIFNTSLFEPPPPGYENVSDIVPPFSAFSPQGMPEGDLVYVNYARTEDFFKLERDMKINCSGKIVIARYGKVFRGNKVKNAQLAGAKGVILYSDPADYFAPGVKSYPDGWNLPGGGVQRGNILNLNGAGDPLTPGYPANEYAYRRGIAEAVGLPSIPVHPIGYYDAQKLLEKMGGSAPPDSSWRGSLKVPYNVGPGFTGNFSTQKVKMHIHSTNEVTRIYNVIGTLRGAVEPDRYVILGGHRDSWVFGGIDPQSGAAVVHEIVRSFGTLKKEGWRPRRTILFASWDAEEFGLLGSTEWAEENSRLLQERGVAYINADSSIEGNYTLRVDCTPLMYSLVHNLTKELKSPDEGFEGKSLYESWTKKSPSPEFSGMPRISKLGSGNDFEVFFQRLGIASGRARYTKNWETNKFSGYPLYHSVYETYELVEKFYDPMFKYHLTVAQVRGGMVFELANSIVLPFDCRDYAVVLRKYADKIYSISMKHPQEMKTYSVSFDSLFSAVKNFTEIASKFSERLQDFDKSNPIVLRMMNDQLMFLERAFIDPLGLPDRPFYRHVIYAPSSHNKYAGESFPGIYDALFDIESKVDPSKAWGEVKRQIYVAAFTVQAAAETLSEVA
Protocol Text: Surface plasmon resonance assay (Biacore T200, single cycle kinetic)
Assay type: binding
Assay Conditions: PSMA SPR assay, hPSMA-Fc, 25° C.; pKD category; read-out: pKD CAT (converted)
Numbered stars: 1 amine (or outer) side, 2 acyl side, 3 side chain; on linkers, the order of the positions; unused ones are H or OH. Bridge positions count the residues as written; N and C are the ends. Square brackets hold non-standard residues; d marks the D form. Peptide text beside a SMILES is read from it. * marks the point of attachment. DOTA = O=C(O)CN1CCN(CC(=O)O)CCN(CC(=O)*)CCN(CC(=O)O)CC1; Trp(5-Br) = N[C@@H](Cc1c[nH]c2ccc(Br)cc12)C(=O)O; Trp(5-Cl) = N[C@@H](Cc1c[nH]c2ccc(Cl)cc12)C(=O)O; Trp(6-Cl) = N[C@@H](Cc1c[nH]c2cc(Cl)ccc12)C(=O)O; Phe(3-Cl) = N[C@@H](Cc1cccc(Cl)c1)C(=O)O; Phe(4-Cl) = N[C@@H](Cc1ccc(Cl)cc1)C(=O)O; Arg(Me) = CNC(=N)NCCC[C@H](N)C(=O)O; Ethylenediamine = C(CN[*:2])N[*:1]; X1 = O=C(CC1CCN([*:1])CC1)[*:2]; Cit = NC(=O)NCCC[C@H](N)C(=O)O; Lys(Me) = CNCCCC[C@H](N)C(=O)O; Tle = CC(C)(C)[C@H](N)C(=O)O; Aib = CC(C)(N)C(=O)O; CH2 = C([*:1])[*:2]
Measured Property: Kd

{"columns": ["Compound", "Kd"],
 "data": [
  ["CCCC[C@H](NC(=O)[C@@H]1CSSC[C@H](NC(=O)[C@H](Cc2ccccc2)NC(=O)[C@H](C)NC(=O)[C@@H](NC(C)=O)[C@@H](C)O)C(=O)N[C@@H](CCCCN)C(=O)N[C@@H](CCCNC(=N)N)C(=O)N[C@@H](C)C(=O)N[C@@H](CC(N)=O)C(=O)N1)C(=O)N[C@H](C(=O)N[C@@H](CC(=O)O)C(N)=O)[C@@H](C)O", "12.6 to 126 nM"],
  ["C[C@@H](O)[C@H](NC(=O)[C@@H](NC(=O)[C@@H]1CSSC[C@H](NC(=O)[C@H](Cc2c[nH]c3cc(Cl)ccc23)NC(=O)C(C)(C)NC(=O)[C@@H](NC(=O)CC2CCN(C(=O)CN3CCN(CC(=O)O)CCN(CC(=O)O)CCN(CC(=O)O)CC3)CC2)[C@@H](C)O)C(=O)N[C@@H](CCCCN)C(=O)N[C@@H](CCCNC(N)=O)C(=O)NC(C)(C)C(=O)N[C@@H](CC(N)=O)C(=O)N1)C(C)(C)C)C(N)=O [PSM-0304] ({DOTA}-[X1]T[Aib][Trp(6-Cl)]CK[Cit][Aib]NC[Tle]T-NH2; disulfide 5-10)", "< 12.6 nM"],
  ["CNCCCC[C@@H]1NC(=O)[C@@H](NC(=O)[C@H](Cc2c[nH]c3ccc(Cl)cc23)NC(=O)C(C)(C)NC(=O)[C@@H](NC(=O)CC2CCN(C(=O)CN3CCN(CC(=O)O)CCN(CC(=O)O)CCN(CC(=O)O)CC3)CC2)[C@@H](C)O)CSSC[C@@H](C(=O)N[C@H](C(=O)N[C@H](C(N)=O)[C@@H](C)O)C(C)(C)C)NC(=O)[C@H](CC(N)=O)NC(=O)C(C)(C)NC(=O)[C@H](CCCNC(=N)NC)NC1=O [PSM-0308] ({DOTA}-[X1]T[Aib][Trp(5-Cl)]C[Lys(Me)][Arg(Me)][Aib]NC[Tle]T-NH2; disulfide 5-10)", "126 to 501 nM"],
  ["C[C@@H](O)[C@H](NC(=O)CC1CCN(C(=O)CN2CCN(CC(=O)O)CCN(CC(=O)O)CCN(CC(=O)O)CC2)CC1)C(=O)NC(C)(C)C(=O)N[C@@H](Cc1ccc(Cl)cc1)C(=O)N[C@H]1CSCSC[C@@H](C(=O)N[C@H](C(N)=O)C(C)(C)C)NC(=O)[C@H](CC(N)=O)NC(=O)C(C)(C)NC(=O)[C@H](CCCNC(=N)N)NC(=O)[C@H](CCCCN)NC1=O [PSM-0332] ({DOTA}-[X1]T[Aib][Phe(4-Cl)]CKR[Aib]NC[Tle]-NH2; linker 5-10 via CH2)", "< 12.6 nM"],
  ["CNC(=N)NCCC[C@@H]1NC(=O)[C@H](CCCCN)NC(=O)[C@@H](NC(=O)[C@H](Cc2ccc(Cl)cc2)NC(=O)C(C)(C)NC(C)=O)CSSC[C@@H](C(=O)N[C@H](C(=O)NCCNC(=O)CN2CCN(CC(=O)O)CCN(CC(=O)O)CCN(CC(=O)O)CC2)C(C)(C)C)NC(=O)[C@H](CC(N)=O)NC(=O)C(C)(C)NC1=O [PSM-0320] (Ac-[Aib][Phe(4-Cl)]CK[Arg(Me)][Aib]NC[Tle]-{Ethylenediamine-DOTA}; disulfide 3-8)", "< 12.6 nM"],
  ["CNCCCC[C@@H]1NC(=O)[C@@H](NC(=O)[C@H](Cc2cccc(Cl)c2)NC(=O)C(C)(C)NC(=O)[C@@H](NC(=O)CC2CCN(C(=O)CN3CCN(CC(=O)O)CCN(CC(=O)O)CCN(CC(=O)O)CC3)CC2)[C@@H](C)O)CSSC[C@@H](C(=O)N[C@H](C(N)=O)C(C)(C)C)NC(=O)[C@H](CC(N)=O)NC(=O)C(C)(C)NC(=O)[C@H](CCCNC(=N)NC)NC1=O [PSM-0354] ({DOTA}-[X1]T[Aib][Phe(3-Cl)]C[Lys(Me)][Arg(Me)][Aib]NC[Tle]-NH2; disulfide 5-10)", "12.6 to 126 nM"],
  ["C[C@@H](O)[C@H](NC(=O)[C@@H](NC(=O)[C@@H]1CSSC[C@H](NC(=O)[C@H](Cc2c[nH]c3ccc(Br)cc23)NC(=O)C(C)(C)NC(=O)[C@@H](NC(=O)CC2CCN(C(=O)CN3CCN(CC(=O)O)CCN(CC(=O)O)CCN(CC(=O)O)CC3)CC2)[C@@H](C)O)C(=O)N[C@@H](CCCCN)C(=O)N[C@@H](CCCNC(N)=O)C(=O)NC(C)(C)C(=O)N[C@@H](CC(N)=O)C(=O)N1)C(C)(C)C)C(N)=O [PSM-0359] ({DOTA}-[X1]T[Aib][Trp(5-Br)]CK[Cit][Aib]NC[Tle]T-NH2; disulfide 5-10)", "> 501 nM"],
  ["CC(=O)N[C@H](C(=O)NC(C)(C)C(=O)N[C@@H](Cc1ccccc1)C(=O)N[C@H]1CSSC[C@@H](C(=O)N[C@H](C(=O)N[C@H](C(=O)N[C@@H](CC(=O)O)C(N)=O)[C@@H](C)O)C(C)(C)C)NC(=O)[C@H](CC(N)=O)NC(=O)[C@H](C)NC(=O)[C@H](CCC(=O)O)NC(=O)[C@H](CCCCN)NC1=O)[C@@H](C)O [PSM-0363] (Ac-T[Aib]FCKEANC[Tle]TD-NH2; disulfide 4-9)", "< 12.6 nM"]
]}

--- query ---
Enquiry: Entry CC(=O)N[C@H](C(=O)NC(C)(C)C(=O)N[C@@H](Cc1ccc(Cl)cc1)C(=O)N[C@H]1CSSC[C@@H](C(=O)N[C@H](C(=O)N[C@H](C(=O)N[C@@H](CC(=O)O)C(N)=O)[C@@H](C)O)C(C)(C)C)NC(=O)[C@H](CC(N)=O)NC(=O)C(C)(C)NC(=O)[C@H](CCCNC(=N)N)NC(=O)[C@H](CCCCN)NC1=O)[C@@H](C)O [PSM-0318] (Ac-T[Aib][Phe(4-Cl)]CKR[Aib]NC[Tle]TD-NH2; disulfide 4-9) : reported Kd = ?
Return: < 12.6 nM
